Hey, just so you know, these numbers are from ChEMBL document CHEMBL3112446.

Test system: Staphylococcus aureus
assay-protocol: Antibacterial activity against Staphylococcus aureus ATCC 29213 by two fold serial dilution method
Assay type: functional
# MIC>98 listing for each entry below
value-type: MIC>98

CN1CCN(CCn2c(-c3cc4ccc(Br)cc4[nH]3)cc3cc(Br)ccc32)CC1 : 4 µg/mL
Brc1ccc2cc(/C=C/c3cc4ccccc4[nH]3)[nH]c2c1 : >64 µg/mL
Brc1ccc2[nH]c(-c3nc4ccc(Br)cc4s3)cc2c1 : >64 µg/mL
COc1cc(-c2cc3ccccc3[nH]2)ccc1-c1cc2ccc(Br)cc2[nH]1 : >64 µg/mL
Brc1ccc2cc(-c3cc4ccccc4s3)[nH]c2c1 : >64 µg/mL
